assay: Stability of peptides in human plasma; assay type: in vitro ADME; details: human, plasma, pH 7.8
Where a SMILES comes first, the peptide text is derived from it. [ ]: non-standard residue; d: D form. ξ: configuration not given here. ξαMePhe(2,6-F2) = CC(N)(Cc1c(F)cccc1F)C(=O)O; ξαMePhe(2-F) = CC(N)(Cc1ccccc1F)C(=O)O; Nle = CCCC[C@H](N)C(=O)O; Ac5c = NC1(C(=O)O)CCCC1; Aib = CC(C)(N)C(=O)O

Compound	metabolised at 24 h, 2 μM
CCCC[C@H](NC(=O)C(C)(Cc1ccccc1F)NC(=O)[C@H](CCC(N)=O)NC(=O)[C@@H](NC(=O)[C@H](CCC(=O)O)NC(=O)C(C)(C)NC(=O)[C@@H](NC(=O)C1(N)CCCC1)C(C)C)[C@@H](C)CC)C(=O)N[C@@H](Cc1c[nH]cn1)C(=O)N[C@@H](CCC(N)=O)C(=O)NC(C)(C)C(=O)NC(C)(C)C(=O)NC(C)(Cc1c(F)cccc1F)C(=O)NC(C)(Cc1c(F)cccc1F)C(N)=O (stereo partly shown) [Seq. ID. 580] (H-[Ac5c]V[Aib]EIQ[ξαMePhe(2-F)][Nle]HQ[Aib][Aib][ξαMePhe(2,6-F2)][ξαMePhe(2,6-F2)]-NH2)	75%

---

Overview of recorded metabolised at 24 h, 2 μM for various compounds
assay: Stability of peptides in human plasma; format: in vitro ADME; details: human, plasma, pH 7.8
Where a SMILES comes first, the peptide text is derived from it. [ ]: non-standard residue; d: D form. ξ: configuration not given here. ξαMeBip(2'-Et,4'-OMe) = CCc1cc(OC)ccc1-c1ccc(CC(C)(N)C(=O)O)cc1; ξBip(2'-Et-4'-OMe) = CCc1cc(OC)ccc1-c1ccc(CC(N)C(=O)O)cc1; ξαMePhe(2,6-F2) = CC(N)(Cc1c(F)cccc1F)C(=O)O; ξαMePhe(2-F) = CC(N)(Cc1ccccc1F)C(=O)O; hhPhe = N[C@@H](CCCc1ccccc1)C(=O)O; hArg = N=C(N)NCCCC[C@H](N)C(=O)O; hCit = NC(=O)NCCCC[C@H](N)C(=O)O; Cit = NC(=O)NCCC[C@H](N)C(=O)O; Nle = CCCC[C@H](N)C(=O)O; Ac5c = NC1(C(=O)O)CCCC1; Ac3c = NC1(C(=O)O)CC1; Aib = CC(C)(N)C(=O)O
Quantity: metabolised at 24 h, 2 μM

Compound	Experimental value
CCCC[C@H](NC(=O)[C@H](CC(C)C)NC(=O)[C@H](CCC(N)=O)NC(=O)[C@@H](NC(=O)[C@H](CCC(=O)O)NC(=O)C1(NC(=O)[C@@H](NC(=O)C2(N)CC2)C(C)C)CC1)[C@@H](C)CC)C(=O)N[C@@H](Cc1c[nH]cn1)C(=O)N[C@@H](CCC(N)=O)C(=O)N[C@@H](CCCCNC(=N)N)C(=O)N[C@@H](C)C(=O)N[C@@H](CCCCN)C(=O)NC(Cc1ccc(-c2ccc(OC)cc2CC)cc1)C(=O)N[C@@H](CCCc1ccccc1)C(N)=O (stereo partly shown) [Seq. ID. 610] (H-[Ac3c]V[Ac3c]EIQL[Nle]HQ[hArg]AK[ξBip(2'-Et-4'-OMe)][hhPhe]-NH2)	71%
CCCC[C@H](NC(=O)C(C)(Cc1ccccc1F)NC(=O)[C@H](CCC(N)=O)NC(=O)[C@@H](NC(=O)[C@H](CCC(=O)O)NC(=O)C(C)(C)NC(=O)[C@@H](NC(=O)C1(N)CCCC1)C(C)C)[C@@H](C)CC)C(=O)N[C@@H](Cc1c[nH]cn1)C(=O)N[C@@H](CCC(N)=O)C(=O)N[C@@H](CCCCNC(N)=O)C(=O)N[C@@H](C)C(=O)N[C@@H](CCCNC(N)=O)C(=O)NC(C)(Cc1ccccc1F)C(N)=O (stereo partly shown) [Seq. ID. 411] (H-[Ac5c]V[Aib]EIQ[ξαMePhe(2-F)][Nle]HQ[hCit]A[Cit][ξαMePhe(2-F)]-NH2)	77%
CCc1cc(OC)ccc1-c1ccc(CC(C)(NC(=O)[C@H](CCCCN)NC(=O)[C@H](C)NC(=O)[C@H](CCCCNC(=N)N)NC(=O)[C@H](CCC(N)=O)NC(=O)[C@H](Cc2c[nH]cn2)NC(=O)[C@H](CCSC)NC(=O)[C@H](CC(C)C)NC(=O)[C@H](CCC(N)=O)NC(=O)[C@@H](NC(=O)[C@H](CCC(=O)O)NC(=O)C(C)(C)NC(=O)[C@@H](NC(=O)C(C)(C)N)C(C)C)[C@@H](C)CC)C(=O)N[C@@H](CCCc2ccccc2)C(N)=O)cc1 (stereo partly shown) [Seq. ID. 890] (H-[Aib]V[Aib]EIQLMHQ[hArg]AK[ξαMeBip(2'-Et,4'-OMe)][hhPhe]-NH2)	0%
CCCC[C@H](NC(=O)C(C)(Cc1c(F)cccc1F)NC(=O)[C@H](CCC(N)=O)NC(=O)[C@@H](NC(=O)[C@H](CCC(=O)O)NC(=O)C(C)(C)NC(=O)[C@@H](NC(=O)C1(N)CCCC1)C(C)C)[C@@H](C)CC)C(=O)N[C@@H](Cc1c[nH]cn1)C(=O)N[C@@H](CCC(N)=O)C(=O)N[C@@H](CCCCNC(=N)N)C(=O)NC(C)(C)C(=O)NC(C)(Cc1c(F)cccc1F)C(=O)NC(C)(Cc1c(F)cccc1F)C(N)=O (stereo partly shown) [Seq. ID. 240] (H-[Ac5c]V[Aib]EIQ[ξαMePhe(2,6-F2)][Nle]HQ[hArg][Aib][ξαMePhe(2,6-F2)][ξαMePhe(2,6-F2)]-NH2)	71%

---

assay: Stability of peptides in human plasma; format: in vitro ADME; conditions: human, plasma, pH 7.8
Where a SMILES comes first, the peptide text is derived from it. [ ]: non-standard residue; d: D form. ξ: configuration not given here. Arg(NO2) = N=C(NCCC[C@H](N)C(=O)O)N[N+](=O)[O-]; ξαMePhe(2-F) = CC(N)(Cc1ccccc1F)C(=O)O; hArg = N=C(N)NCCCC[C@H](N)C(=O)O; hCit = NC(=O)NCCCC[C@H](N)C(=O)O; ξαMeF = CC(N)(Cc1ccccc1)C(=O)O; Nle = CCCC[C@H](N)C(=O)O; ξαMeP = CC1(C(=O)O)CCCN1; Ac5c = NC1(C(=O)O)CCCC1; Aib = CC(C)(N)C(=O)O
Quantity: metabolised at 24 h, 2 μM

Compound	Experimental value
CCCC[C@H](NC(=O)C(C)(Cc1ccccc1F)NC(=O)[C@H](CCC(N)=O)NC(=O)[C@@H](NC(=O)[C@H](CCC(=O)O)NC(=O)C(C)(C)NC(=O)[C@@H](NC(=O)C1(N)CCCC1)C(C)C)[C@@H](C)CC)C(=O)N[C@@H](Cc1c[nH]cn1)C(=O)N[C@@H](CCC(N)=O)C(=O)N[C@@H](CCCCNC(N)=O)C(=O)NC(C)(C)C(=O)N[C@@H](CCCNC(=N)N[N+](=O)[O-])C(=O)NC(C)(Cc1ccccc1F)C(N)=O (some centres unmarked) [Seq. ID. 460] (H-[Ac5c]V[Aib]EIQ[ξαMePhe(2-F)][Nle]HQ[hCit][Aib][Arg(NO2)][ξαMePhe(2-F)]-NH2)	71%
CCCC[C@H](NC(=O)C(C)(Cc1ccccc1F)NC(=O)[C@H](CCC(N)=O)NC(=O)[C@@H](NC(=O)[C@H](CCC(=O)O)NC(=O)C1(NC(=O)[C@@H](NC(=O)C2(N)CCCC2)C(C)C)CCCC1)[C@@H](C)CC)C(=O)N[C@@H](Cc1c[nH]cn1)C(=O)N[C@@H](CCC(N)=O)C(=O)N[C@@H](CCCCNC(=N)N)C(=O)N1CCCC1(C)C(=O)N[C@@H](CCCCN)C(=O)NC(C)(Cc1ccccc1)C(N)=O (some centres unmarked) [Seq. ID. 34] (H-[Ac5c]V[Ac5c]EIQ[ξαMePhe(2-F)][Nle]HQ[hArg][ξαMeP]K[ξαMeF]-NH2)	70%

---

assay: Stability of peptides in human plasma; type: in vitro ADME; details: human, plasma, pH 7.8
Where a SMILES comes first, the peptide text is derived from it. [ ]: non-standard residue; d: D form. ξ: configuration not given here. ξBip(2'-Et-4'-OMe) = CCc1cc(OC)ccc1-c1ccc(CC(N)C(=O)O)cc1; Arg(NO2) = N=C(NCCC[C@H](N)C(=O)O)N[N+](=O)[O-]; ξαMePhe(2,6-F2) = CC(N)(Cc1c(F)cccc1F)C(=O)O; ξαMePhe(2-F) = CC(N)(Cc1ccccc1F)C(=O)O; hhPhe = N[C@@H](CCCc1ccccc1)C(=O)O; hArg = N=C(N)NCCCC[C@H](N)C(=O)O; Nle = CCCC[C@H](N)C(=O)O; Orn = NCCC[C@H](N)C(=O)O; Ac5c = NC1(C(=O)O)CCCC1; Aib = CC(C)(N)C(=O)O

Compound	metabolised at 24 h, 2 μM
CCCC[C@H](NC(=O)[C@H](CC(C)C)NC(=O)[C@H](CCC(N)=O)NC(=O)[C@@H](NC(=O)[C@H](CCC(=O)O)NC(=O)C(C)(C)NC(=O)[C@@H](NC(=O)C(C)(C)N)C(C)C)[C@@H](C)CC)C(=O)N[C@@H](Cc1c[nH]cn1)C(=O)N[C@@H](CCC(N)=O)C(=O)N[C@@H](CCCN)C(=O)N[C@@H](C)C(=O)NC(C)(C)C(=O)NC(Cc1ccc(-c2ccc(OC)cc2CC)cc1)C(=O)N[C@@H](CCCc1ccccc1)C(N)=O (stereo partly shown) [Seq. ID. 750] (H-[Aib]V[Aib]EIQL[Nle]HQ[Orn]A[Aib][ξBip(2'-Et-4'-OMe)][hhPhe]-NH2)	9%
CCCC[C@H](NC(=O)C(C)(Cc1ccccc1F)NC(=O)[C@H](CCC(N)=O)NC(=O)[C@@H](NC(=O)[C@H](CCC(=O)O)NC(=O)C(C)(C)NC(=O)[C@@H](NC(=O)C(C)(C)N)C(C)C)[C@@H](C)CC)C(=O)N[C@@H](Cc1c[nH]cn1)C(=O)N[C@@H](CCC(N)=O)C(=O)N[C@@H](CCCCNC(=N)N)C(=O)NC(C)(C)C(=O)NC(C)(C)C(=O)NC(C)(Cc1c(F)cccc1F)C(N)=O (stereo partly shown) [Seq. ID. 182] (H-[Aib]V[Aib]EIQ[ξαMePhe(2-F)][Nle]HQ[hArg][Aib][Aib][ξαMePhe(2,6-F2)]-NH2)	0%
CCCC[C@H](NC(=O)C(C)(Cc1ccccc1F)NC(=O)[C@H](CCC(N)=O)NC(=O)[C@@H](NC(=O)[C@H](CCC(=O)O)NC(=O)C(C)(C)NC(=O)[C@@H](NC(=O)C1(N)CCCC1)C(C)C)[C@@H](C)CC)C(=O)N[C@@H](Cc1c[nH]cn1)C(=O)N[C@@H](CCC(N)=O)C(=O)N[C@@H](CCCN)C(=O)N[C@@H](C)C(=O)NC(C)(Cc1c(F)cccc1F)C(=O)NC(C)(Cc1ccccc1F)C(N)=O (stereo partly shown) [Seq. ID. 315] (H-[Ac5c]V[Aib]EIQ[ξαMePhe(2-F)][Nle]HQ[Orn]A[ξαMePhe(2,6-F2)][ξαMePhe(2-F)]-NH2)	71%
CCCC[C@H](NC(=O)C(C)(Cc1c(F)cccc1F)NC(=O)[C@H](CCC(N)=O)NC(=O)[C@@H](NC(=O)[C@H](CCC(=O)O)NC(=O)C(C)(C)NC(=O)[C@@H](NC(=O)C(C)(C)N)C(C)C)[C@@H](C)CC)C(=O)N[C@@H](Cc1c[nH]cn1)C(=O)N[C@@H](CCC(N)=O)C(=O)NC(C)(C)C(=O)NC(C)(C)C(=O)N[C@@H](CCCNC(=N)N[N+](=O)[O-])C(=O)NC(C)(Cc1ccccc1F)C(N)=O (stereo partly shown) [Seq. ID. 590] (H-[Aib]V[Aib]EIQ[ξαMePhe(2,6-F2)][Nle]HQ[Aib][Aib][Arg(NO2)][ξαMePhe(2-F)]-NH2)	0%
